- tested_system: cGAS (Homo sapiens, UniProt Q8N884)
- Sequence (Q8N884 whole entry): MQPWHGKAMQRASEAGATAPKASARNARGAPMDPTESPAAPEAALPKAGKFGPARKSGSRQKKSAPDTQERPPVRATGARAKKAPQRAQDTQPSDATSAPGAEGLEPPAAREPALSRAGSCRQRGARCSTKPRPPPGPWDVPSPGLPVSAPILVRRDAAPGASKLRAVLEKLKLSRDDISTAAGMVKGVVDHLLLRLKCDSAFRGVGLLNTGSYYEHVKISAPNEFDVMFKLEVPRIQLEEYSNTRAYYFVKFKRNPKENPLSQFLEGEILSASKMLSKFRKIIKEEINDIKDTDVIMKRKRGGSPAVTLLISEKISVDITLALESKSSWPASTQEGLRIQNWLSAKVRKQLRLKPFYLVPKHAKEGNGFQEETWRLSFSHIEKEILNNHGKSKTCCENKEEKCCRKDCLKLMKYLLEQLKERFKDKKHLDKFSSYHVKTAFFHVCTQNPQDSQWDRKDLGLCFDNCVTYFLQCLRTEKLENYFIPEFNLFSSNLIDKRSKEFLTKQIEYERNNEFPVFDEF
- protocol_text: cGAS enzymatic assay (FP/TR-FRET detection of cGAMP)
- Format: biochemical
- Design: The cGAS assay was used to screen 100,000 compounds with full-length human cGAS; 6xHis; made in house
- recorded_conditions: cGAS (30 nM), with Mn^2+; read-out: Inhibition cGAS + Mn^2+
property_label: IC50

Solved cases (4 shown):
compound	measured_result
CC(C)(C(=O)N[C@H]1C[C@@H](C(=O)O)N(c2nc(C(F)(F)F)nc3c2oc2ccccc23)C1)c1cn[nH]c1 [Compound 58]	1 to 10 µM
CCc1nc(N2CC[C@H]2C(=O)O)c2oc3ccccc3c2n1 [Compound 19]	1 to 10 µM
Cc1nc(N2C[C@@H](Nc3n[nH]cc3-c3ccccn3)C[C@H]2C(=O)O)c2oc3ccccc3c2n1 [Compound 63]	1 to 10 µM
CO[C@H]1C[C@@H](C(=O)O)N(c2nc(C)nc3c2oc2ccccc23)C1 [Compound 23]	> 10 µM

Fill in: IC50 of Cc1nc(N2C[C@@H](Nc3n[nH]cc3-c3ccccc3)CC2C(=O)O)c2oc3cc(F)ccc3c2n1 (stereo in doubt) [Compound 56] is ___ 1 to 10 µM

Fill in: IC50 of Cc1nc(N[C@@H](CCC(=O)O)C(=O)O)c2oc3ccccc3c2n1 [Compound 24] is ___ > 10 µM
